Parameter cytotoxicity at 70.5 h: see the listing below.
# assayExplanation: Human HepG2 cell viability assay in 384 well format
# Type: toxicity, cell-based
# Design: dose 125 nL, time 70.5 hour; concentration not given beside the values
# measurementContext: HepG2 cells, read-out: Inhibition
measurementKind: cytotoxicity at 70.5 h

compound | measurementKind | result
Cc1csc2c(C3CCN(CCOc4ccccc4F)CC3)nc(C)n12 | cytotoxicity at 70.5 h | 18.2%
Cn1cc(C(=O)N2CCCC(c3cc(O)n(C)n3)C2)cn1 (configuration not stated) | cytotoxicity at 70.5 h | 7.43%
CC(C)C1CCCN1CC(=O)NCc1ccc(OCC(N)=O)cc1 (configuration not stated) | cytotoxicity at 70.5 h | 2.47%
CCN1CCC12CCN(C(=O)c1ccsc1)C2 (configuration not stated) | cytotoxicity at 70.5 h | -12.4%
C[C@H]1C[C@@H]2CCN(Cc3nccs3)C[C@H]2O1 | cytotoxicity at 70.5 h | -9.2%
c1nc(N2CCc3nc[nH]c3C2)c2cc[nH]c2n1 | cytotoxicity at 70.5 h | 2.38%
Cc1nn(C)c(C)c1CCC(=O)NCc1csc(N2CCCC2)n1 | cytotoxicity at 70.5 h | 2.01%
COc1cccc(CNC2CCCOc3cc(C)ccc32)n1 (configuration not stated) | cytotoxicity at 70.5 h | -9.25%
c1cnn(CC2CN(c3ncnc4ccsc34)CCO2)c1 (configuration not stated) | cytotoxicity at 70.5 h | -0.0557%
Cc1oncc1C(=O)N1CCC2(CC1)CN(S(C)(=O)=O)c1ccccc12 | cytotoxicity at 70.5 h | -3.56%
Cc1nc(CN2CCN(CC(O)CN3CCOCC3)CC2)oc1C (configuration not stated) | cytotoxicity at 70.5 h | 8.53%
O=C(CCc1ccccc1)N1CCN(C(=O)c2ccc[nH]2)CC1 | cytotoxicity at 70.5 h | -12.3%

====

Parameter cytotoxicity at 70.5 h: see the listing below.
# assayExplanation: Human HepG2 cell viability assay in 384 well format
# Type: toxicity, cell-based
# Design: dose 125 nL, time 70.5 hour; concentration not given beside the values
# measurementContext: HepG2 cells, read-out: Inhibition

molecule | unitTag | cytotoxicity at 70.5 h
Cc1cccc(SC2CCN(C(=O)CCCS(N)(=O)=O)CC2)c1 | % | -6.67
CS(=O)(=O)NC[C@]12COC[C@H]1CN(Cc1ccc3c(c1)OCO3)C2 | % | 5.12
O=C1CN(C(=O)CSC2CCCc3ccccc32)CCN1 (stereo unspecified) | % | 5.33
CC(C)n1cc(CN2CCCN(C(=O)C3CCOC3)CC2)cn1 (stereo unspecified) | % | 19.9
Cc1noc(CCCC(=O)N2CCNC(=O)C2)n1 | % | -9.21
Cc1cccc(CN2C[C@@H]3OCCN(c4cnccn4)[C@@H]3C2)n1 | % | -4.63
CC(C)c1nnc(CNc2ccc(SC(F)(F)F)cc2)o1 | % | 36.9
Cc1cncc(C(=O)NCC2COCc3c(C)nnn3C2)c1 (stereo unspecified) | % | 0.75
CS(=O)(=O)CCC(=O)N(Cc1c(F)cccc1F)C1CCCC1 | % | 21
Cc1cc(N2CCN(C(=O)c3cccnc3)CC2)nc(C)n1 | % | -2.72
O=C(Nc1nc2c(s1)CN(S(=O)(=O)C1CC1)CC2)c1ccsc1 | % | -12.1

Value source: ChEMBL document CHEMBL3507680
